pIC50: −log10 of the molar value.
Let's go through some recorded pIC50 values for Alk (Homo sapiens, UniProt Q9UM73) together.

Would you please look over these solved cases?
Task item: What pIC50 appears in the records for this compound with Alk (Homo sapiens, UniProt Q9UM73)? CN1CCC(N2C(=O)c3cc4nc(-c5c(NC[C@@H](O)COc6cccc(N7CCOCC7)c6)ccnc5O)[nH]c4cc3C2=O)CC1
Sequence (Q9UM73 1116-1392 limits assumed, species assumed): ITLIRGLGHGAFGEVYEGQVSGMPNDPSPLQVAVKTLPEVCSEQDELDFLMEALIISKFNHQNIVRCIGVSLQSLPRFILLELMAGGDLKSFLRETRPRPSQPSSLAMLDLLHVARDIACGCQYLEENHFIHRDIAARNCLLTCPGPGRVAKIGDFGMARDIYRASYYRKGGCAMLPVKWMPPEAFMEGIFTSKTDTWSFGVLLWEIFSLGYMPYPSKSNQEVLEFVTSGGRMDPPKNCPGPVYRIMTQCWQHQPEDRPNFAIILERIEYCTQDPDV
Reply: 5.30 to 6.30

Task item: Lab note: need pIC50 with Alk (Homo sapiens, UniProt Q9UM73) for entry Cc1c(Cl)cccc1OC[C@H](O)CNc1cc[nH]c(=O)c1-c1nc2cc3c(cc2[nH]1)C(=O)N(CC(C)(C)CN(C)C)C3=O , please look it up.
Reply: 4.82 to 5.30

Task item: Under Alk (Homo sapiens, UniProt Q9UM73): pIC50 value of CN1CCC(N2C(=O)c3cc4nc(-c5c(NC[C@@H](O)COc6cccc(C(F)(F)F)c6)cc[nH]c5=O)[nH]c4cc3C2=O)CC1 ?
Reply: 4.82 to 5.30

Further cases:
Task item: Lab note: need pIC50 with Alk (Homo sapiens, UniProt Q9UM73) for entry Cc1ccc(OC[C@H](O)CNc2cc[nH]c(=O)c2-c2nc3c(C)c4c(cc3[nH]2)C(=O)N(C2CCN(C)CC2)C4=O)c(C)c1Cl , please look it up.
Reply: 4.82 to 5.30
